Origin of measurements: patent US10294202B2

System: corn
ASSAY PROTOCOL: Test A pre-/postemergence herbicide test
Format: in vivo, Zea mays
MEASUREMENT SETUP: preemergence; 500 g ai/ha; 0 to 100 scale, 0 is no effect and 100 is complete control
From the text: […]
Item-by-item account of Plant response rating, Corn

Look over these answered cases.
> print(dat)
                                   compound  value.reported
1  O=C1NCC(c2ccc(Cl)c(C(F)(F)F)c2)C1C(=O)Nc1ccccc1C(F)(F)F (racemic)               0
2  O=C1NCC(c2ccc(C(F)(F)F)c(F)c2)C1C(=O)Nc1ccccc1C(F)(F)F (racemic)               0
3  COc1ccc(C2CNC(=O)C2C(=O)Nc2ccccc2F)cc1F (racemic)               0

Bench note: what Plant response rating, Corn did O=C1NCC(c2cccc(C(F)(F)F)c2)C1C(=O)Nc1ccccc1Cl (racemic) show?
0

###

Tested on: bermudagrass
ASSAY PROTOCOL: Test C pre-/postemergence herbicide test
Type: in vivo, Cynodon dactylon
MEASUREMENT SETUP: Preemergence, 62 g ai/ha; scale 0 to 100
MEASUREMENT NAME: Plant response rating, Bermudagrass

Here's what some known entries look like.
> print(dat)
                                   compound  value.reported
1  O=C1NCC(c2cc(F)c(F)c(F)c2)C1C(=O)Nc1ccccc1C(F)(F)F (racemic)               0
2  O=C1NCC(c2cc(F)c(F)c(F)c2)C1C(=O)Nc1ccccc1F (racemic)               0
3  O=C1NCC(c2ccccc2)C1C(=O)Nc1ccccc1F (racemic)               0
4  Cc1ccccc1NC(=O)C1C(=O)NCC1c1cc(F)c(F)c(F)c1 (racemic)               0
5  O=C1NCC(c2cccc(OC(F)(F)F)c2)C1C(=O)Nc1cccc(F)c1F (stereo not drawn)              50

Then this compound:
Notebook entry, bermudagrass assay: Plant response rating, Bermudagrass of O=C1NCC(c2ccc(F)cc2)C1C(=O)Nc1ccccc1F (racemic) = ?
0

###

Tested on: barnyardgrass
ASSAY PROTOCOL: Test C pre-/postemergence herbicide test
Type: in vivo, Echinochloa crus-galli
MEASUREMENT SETUP: Postemergence, 125 g ai/ha; scale 0 to 100 (0 no effect, 100 complete control)
Text: […]
MEASUREMENT NAME: Plant response rating, Barnyardgrass
# answer = number (no unit)

Known Plant response rating, Barnyardgrass results, listed for orientation:
> print(dat)
                                   compound  value.reported
1  O=C1NCC(c2ccc(F)cc2)C1C(=O)Nc1cccc(F)c1F (racemic)              65
2  O=C1NCC(c2cccc(C(F)(F)F)c2)C1C(=O)Nc1ccc(F)c(F)c1F (stereo not shown)              70
3  O=C1NCC(c2cccc(Br)c2)C1C(=O)Nc1cccc(F)c1F (stereo not shown)              55

What does the data say about its Plant response rating, Barnyardgrass? Entry: CN1CC(c2ccc(F)c(F)c2)C(C(=O)Nc2ccccc2F)C1=O (stereo not shown)
40

And what about the compound O=C1NCC(c2cccc(OC(F)F)c2)C1C(=O)Nc1cccc(F)c1F (stereo not shown) ?
55

Here is the next compound: O=C1NCC(c2cccc(Cl)c2)C1C(=O)Nc1cccc(F)c1F (racemic)
75

What about this compound? O=C1NCC(c2cccc(C(F)(F)F)c2)C1C(=O)Nc1ccccc1Cl (stereo not shown)
70

###

Tested on: corn
ASSAY PROTOCOL: Test A pre-/postemergence herbicide test
Format: in vivo, Zea mays
MEASUREMENT SETUP: Postemergence, 500 g ai/ha; 0 to 100 scale (0 no effect, 100 complete control)
MEASUREMENT NAME: Plant response rating, Corn
Form: value (number only, do not type unit).

Example entries begin here.
> print(dat)
                                   molecule  value.reported
1  O=C1NCC(c2ccc(F)c(F)c2)C1C(=O)Nc1cccc(F)c1 (racemic) [Compound 12]               0
2  O=C1NCC(c2ccc(OC(F)F)cc2)C1C(=O)Nc1ccccc1F (stereo not shown) [Compound 349]              20

So what does the record say about Plant response rating, Corn for O=C1NCC(c2cc3ccccc3o2)C1C(=O)Nc1ccccc1C(F)(F)F (stereo not shown) [Compound 283] ?
0

Try the molecule O=C1NCC(c2ccc(C(F)(F)F)c(F)c2)C1C(=O)Nc1ccccc1C(F)(F)F (racemic) [Compound 248]
20

###

Readings of Plant response rating, Morningglory for the listed compounds
Tested on: morningglory
ASSAY PROTOCOL: Test C pre-/postemergence herbicide test
Assay type: in vivo, Ipomoea coccinea
MEASUREMENT SETUP: Preemergence, 125 g ai/ha; scale 0 to 100 (0 no effect, 100 complete control)
Answer with a number only.

Check out these entries, answers already filled in.
> print(dat)
                                   compound  assayed.system  value.reported
1  CN1CC(c2cccc(C(F)(F)F)c2)C(C(=O)Nc2ccccc2F)C1=O (stereo not drawn)    morningglory              45
2  O=C1NCC(c2ccc(F)c(C(F)(F)F)c2)C1C(=O)Nc1ccccc1C(F)(F)F (racemic)    morningglory               0
3  O=C1NCC(c2cccc(Cl)c2)C1C(=O)Nc1cccc(F)c1F (racemic)    morningglory               0

--- query ---
Fill blank: measured Plant response rating, Morningglory of the compound O=C1NCC(c2ccc(C(F)(F)F)nc2)C1C(=O)Nc1ccccc1F (racemic) is ____.
10

###

Test system: barnyardgrass
ASSAY PROTOCOL: Test C pre-/postemergence herbicide test
Assay type: in vivo, Echinochloa crus-galli
MEASUREMENT SETUP: Preemergence, 62 g ai/ha; scale 0 to 100
MEASUREMENT NAME: Plant response rating, Barnyardgrass

In the examples that follow, each entry is paired with its recorded Plant response rating, Barnyardgrass.
> print(dat)
                                   compound  value.reported
1  O=C1NCC(c2ccc(F)cc2)C1C(=O)Nc1cccc(F)c1F (racemic) [Compound 119]              90
2  O=C1NCC(c2cccc(OC(F)F)c2)C1C(=O)Nc1ccccc1F (centres unmarked) [Compound 223]              85
3  O=C1NCC(c2cccc(C(F)(F)F)c2)C1C(=O)Nc1ccccc1Cl (racemic) [Compound 189]              90
4  O=C1NCC(c2ccc(C(F)(F)F)cc2)C1C(=O)Nc1ccc(F)c(F)c1F (centres unmarked) [Compound 232]              85

Proceeding to the next compound to report its Plant response rating, Barnyardgrass.
Record request: Plant response rating, Barnyardgrass value, item O=C1NCC(c2ccc(C(F)(F)F)c(F)c2)C1C(=O)Nc1ccccc1F (racemic) [Compound 246]
75

###

Parameter: Pigweed plant response rating. Scope: all listed entries.
Tested on: pigweed
ASSAY PROTOCOL: Test C pre-/postemergence herbicide test
Assay type: in vivo, Amaranthus retroflexus
MEASUREMENT SETUP: Preemergence, 62 g ai/ha; scale 0 to 100 (0 no effect, 100 complete control)
Note: the reply should be a number with no unit written.

// solved cases for Pigweed plant response rating follow
> print(dat)
                                   molecule               measurement.name  value.reported
1  O=C1NCC(c2ccc(C(F)(F)F)nc2)C1C(=O)Nc1cccc(F)c1F (racemic) [Compound 263]  Pigweed plant response rating              70
2  O=C1NCC(c2cccc(Br)c2)C1C(=O)Nc1cccc(F)c1F (stereo not shown) [Compound 309]  Pigweed plant response rating               0
3  O=C1NCC(c2ccc(C(F)(F)F)c(F)c2)C1C(=O)Nc1cccc(F)c1F (racemic) [Compound 247]  Pigweed plant response rating              55

Below: the item to evaluate.
I have this molecule here, O=C1NCC(c2cccc(C(F)(F)F)c2)C1C(=O)Nc1ccccc1Cl (stereo not shown) [Compound 312] , and I need its recorded Pigweed plant response rating.
40

###

Tested on: corn
ASSAY PROTOCOL: Test C pre-/postemergence herbicide test
Type: in vivo, Zea mays
MEASUREMENT SETUP: Postemergence, 125 g ai/ha; scale 0 to 100 (0 no effect, 100 complete control)
Excerpt: […]
Parameter: Plant response rating, Corn. Scope: all listed entries.

Look up Plant response rating, Corn for this compound: O=C1NCC(c2cc(F)cc(F)c2)C1C(=O)Nc1cccc(F)c1F (racemic) [Compound 279]
0

Subsequent entry: O=C1NCC(c2cc(F)cc(F)c2)C1C(=O)Nc1ccc(F)cc1F (racemic) [Compound 278]
0

Follow-up entry: O=C1NCC(c2cccc(OC(F)F)c2)C1C(=O)Nc1cccc(F)c1F (centres unmarked) [Compound 324]
55

Proceed to O=C1NCC(c2cccc(Br)c2)C1C(=O)Nc1cccc(F)c1F (centres unmarked) [Compound 309]
0

And O=C1NCC(c2ccc(F)cc2)C1C(=O)Nc1cccc(F)c1F (racemic) [Compound 119] ?
0
